target: recombinant soluble homotrimeric HA of A/Solomon Islands/3/06 (H1N1) (Influenza A virus A/Solomon Islands/3/2006(H1N1)); experiment: trimeric HA microarray, transfection supernatant set 2; details: remark: other sources report otherwise
Result Type: Trimeric HA Binding: RLU
Provide a numeric answer, followed by its unit.

Use the examples below as a reference point.
| Binder | Result Type | Reported Result |
| --- | --- | --- |
| TCN-528 (5087_P17) (antibody, V domains shown) VH: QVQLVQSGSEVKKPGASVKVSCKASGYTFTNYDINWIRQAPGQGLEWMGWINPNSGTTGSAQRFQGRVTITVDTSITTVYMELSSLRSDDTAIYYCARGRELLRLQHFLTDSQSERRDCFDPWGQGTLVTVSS VL: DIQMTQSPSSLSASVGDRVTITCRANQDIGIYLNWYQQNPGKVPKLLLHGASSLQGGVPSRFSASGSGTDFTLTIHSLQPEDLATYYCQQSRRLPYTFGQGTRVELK | Trimeric HA Binding: RLU | 26900 RLU |
| TCN-522 (3212_I12) (antibody, V domains shown) VH: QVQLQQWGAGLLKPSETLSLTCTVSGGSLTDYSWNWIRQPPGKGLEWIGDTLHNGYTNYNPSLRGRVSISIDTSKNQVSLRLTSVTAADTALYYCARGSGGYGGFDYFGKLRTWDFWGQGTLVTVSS VL: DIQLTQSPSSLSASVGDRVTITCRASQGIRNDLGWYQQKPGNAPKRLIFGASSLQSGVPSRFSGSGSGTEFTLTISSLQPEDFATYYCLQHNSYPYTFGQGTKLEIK | Trimeric HA Binding: RLU | 17300 RLU |

Attention now turns to another entry.
*Q* Which value of Trimeric HA Binding: RLU has been reported for TCN-504 (3251_K17) (antibody, V domains shown) VH: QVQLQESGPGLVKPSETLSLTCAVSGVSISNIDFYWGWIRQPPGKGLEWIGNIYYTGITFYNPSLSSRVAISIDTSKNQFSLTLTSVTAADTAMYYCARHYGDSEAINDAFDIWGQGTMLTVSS VL: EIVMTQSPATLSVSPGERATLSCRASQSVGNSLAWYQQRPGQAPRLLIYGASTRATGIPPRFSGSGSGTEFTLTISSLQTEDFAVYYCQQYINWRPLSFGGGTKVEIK in the records?
*A* 31400 RLU
